Target: human dopamine receptor D2 (DRD2) (Homo sapiens, UniProt P14416)
Construct: expressed in transfected cells; host or cells: HEK293T (pcDNA3 vectors)
Sequence (P14416 whole entry): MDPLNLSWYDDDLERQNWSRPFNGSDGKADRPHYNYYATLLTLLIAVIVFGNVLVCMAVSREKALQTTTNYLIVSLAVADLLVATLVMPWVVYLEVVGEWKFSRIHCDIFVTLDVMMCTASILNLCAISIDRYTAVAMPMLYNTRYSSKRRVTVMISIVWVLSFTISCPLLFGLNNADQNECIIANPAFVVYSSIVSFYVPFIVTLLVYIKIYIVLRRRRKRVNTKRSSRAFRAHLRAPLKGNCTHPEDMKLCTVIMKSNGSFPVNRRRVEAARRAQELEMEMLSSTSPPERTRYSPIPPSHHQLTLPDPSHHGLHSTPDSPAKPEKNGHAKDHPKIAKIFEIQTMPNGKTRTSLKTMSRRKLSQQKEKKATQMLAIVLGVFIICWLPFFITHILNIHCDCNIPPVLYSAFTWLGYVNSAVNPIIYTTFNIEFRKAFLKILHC
Experiment: Dopamine receptor D2 inhibition assay (SRE-luciferase reporter in HEK293T cells)
Type: cell-based
Conditions: 10 μM for 3 hours
quantity-name: inhibition of DRD2 signaling

CCN1CCCC1CNC(=O)c1cc(S(N)(=O)=O)ccc1OC (stereo not shown) [sulpiride, reference compound] ... strong inhibitors
O=c1[nH]c2ccccc2n1CCCN1CCC(n2c(=O)[nH]c3cc(Cl)ccc32)CC1 [domperidone, reference compound] ... strong inhibitors

----------
Assay: in vivo
Details: female, mouse, po
quantity-name: MTD at 1 week (mg/kg)
Field format: number, assumed mg/kg, no unit text.

Recorded MTD at 1 week for OCCN1CCN(CCCN2c3ccccc3Sc3ccc(Cl)cc32)CC1 [PPZ, perphenazine, reference compound] , please?
2.5

----------
Test system: KOPT-K1, SUPT-13 and RPMI-8402 cells
Assay: Dose-response viability in three T-ALL cell lines, 72 hours
Format: cell-based, human
Settings: Homo sapiens; KOPT-K1, SUPT-13 and RPMI-8402, 72 hours
quantity-name: IC50

Lab note: need IC50 with KOPT-K1, SUPT-13 and RPMI-8402 cells for entry COc1ccc(C(=O)N2c3ccccc3Sc3ccc(Cl)cc32)cc1 [iPAP1] , please look it up.
0.2 to 0.4 µM
